tested-target: Human Factor XIIa (Homo sapiens)
Construct: purchased Enzyme Research Laboratories
Sequence (P00748 373-615 limits assumed): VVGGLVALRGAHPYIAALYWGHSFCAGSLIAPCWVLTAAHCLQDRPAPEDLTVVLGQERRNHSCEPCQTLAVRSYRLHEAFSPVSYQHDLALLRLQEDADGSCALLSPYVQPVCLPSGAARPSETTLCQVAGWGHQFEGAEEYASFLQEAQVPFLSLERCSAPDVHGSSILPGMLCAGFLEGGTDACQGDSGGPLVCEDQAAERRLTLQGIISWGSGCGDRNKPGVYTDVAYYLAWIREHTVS
assay-method-text: Factor XIIa inhibitory activity in vitro (fluorogenic substrate H-DPro-Phe-Arg-AFC)
Assay type: biochemical
conditions-used: 25° C., class symbols, read-out: Human FXIIa IC50
readout-label: IC50

Example results:
C[C@H](NC(=O)[C@@H](CCc1ccccc1)NCC(C)(C)C)C(=O)NCc1ccc2[nH]cc(Cl)c2c1    0.28 to 1 µM
CN[C@H](CCc1ccccc1)C(=O)N1CC[C@H]1C(=O)NCc1ccc2c(N)nccc2c1    0.28 to 1 µM
Nc1nccc2cc(CNC(=O)[C@H](Cc3ccc(F)c(F)c3)NC(=O)c3ccc[nH]c3=O)ccc12    3 to 10 µM
Cn1nc(C(C)(C)C)cc1C(=O)N[C@@H](Cc1ccc(F)c(F)c1)C(=O)NCc1ccc2c(N)nccc2c1    10 to 40 µM
Nc1nccc2cc(CNC(=O)C3(NC(=O)[C@H](N)CCc4ccccc4)CCOCC3)ccc12    3 to 10 µM

# map each compound to its IC50
1. Nc1nccc2cc(CNC(=O)[C@H](Cc3ccc(F)c(F)c3)NC(=O)Cc3cccnc3)ccc12
2. Nc1nccc2cc(CNC(=O)[C@H](Cc3ccc(F)c(F)c3)NC(=O)c3cccc(-n4ccnc4)c3)ccc12
3. CC(C)N[C@H](CCc1ccccc1)C(=O)N[C@@H](C)C(=O)NCc1ccc(CN)cc1
4. C[C@H](NC(=O)[C@H](N)CCc1ccccc1)C(=O)NCc1cnc2[nH]cc(Cl)c2c1
5. CC(C)n1cc(C(=O)N[C@@H](Cc2ccc(F)c(F)c2)C(=O)NCc2ccc3c(N)nccc3c2)cn1
6. N=C(N)c1ccc(CNC(=O)[C@H](Cc2ccccc2)NC(=O)[C@@H](CC2CCCCC2)NCC(=O)O)cc1
7. CC1CCCC(C)N1CC(=O)N[C@@H](Cc1cccc2ccccc12)C(=O)NCc1ccc2c(N)nccc2c1 (stereo partly drawn)

10 to 40 µM
3 to 10 µM
3 to 10 µM
0.28 to 1 µM
10 to 40 µM
3 to 10 µM
0.1 to 0.279 µM

# map each compound to its IC50
1. CC(C)(NC(=O)[C@H](N)CCc1ccccc1)C(=O)NCc1ccc2c(N)nccc2c1
2. C[C@@H]1CCC[C@H](C)N1CC(=O)N[C@@H](Cc1csc2ccccc12)C(=O)NCc1ccc2c(N)nccc2c1
3. CC(C)N[C@H](CCc1ccccc1)C(=O)N[C@@H](C)C(=O)NCC1CNc2ccc(Cl)cc2O1 (stereo partly drawn)

0.28 to 1 µM
0.03 to 0.1 µM
10 to 40 µM
